Readings of IC50 for the listed compounds
biological target: Acetylcholinesterase (Homo sapiens); experiment: Inhibition of human recombinant AChE using ATCh as substrate preincubated for 20 mins followed by substrate addition and measured for 3 mins by Ellman method
Sequence (P22303 whole entry): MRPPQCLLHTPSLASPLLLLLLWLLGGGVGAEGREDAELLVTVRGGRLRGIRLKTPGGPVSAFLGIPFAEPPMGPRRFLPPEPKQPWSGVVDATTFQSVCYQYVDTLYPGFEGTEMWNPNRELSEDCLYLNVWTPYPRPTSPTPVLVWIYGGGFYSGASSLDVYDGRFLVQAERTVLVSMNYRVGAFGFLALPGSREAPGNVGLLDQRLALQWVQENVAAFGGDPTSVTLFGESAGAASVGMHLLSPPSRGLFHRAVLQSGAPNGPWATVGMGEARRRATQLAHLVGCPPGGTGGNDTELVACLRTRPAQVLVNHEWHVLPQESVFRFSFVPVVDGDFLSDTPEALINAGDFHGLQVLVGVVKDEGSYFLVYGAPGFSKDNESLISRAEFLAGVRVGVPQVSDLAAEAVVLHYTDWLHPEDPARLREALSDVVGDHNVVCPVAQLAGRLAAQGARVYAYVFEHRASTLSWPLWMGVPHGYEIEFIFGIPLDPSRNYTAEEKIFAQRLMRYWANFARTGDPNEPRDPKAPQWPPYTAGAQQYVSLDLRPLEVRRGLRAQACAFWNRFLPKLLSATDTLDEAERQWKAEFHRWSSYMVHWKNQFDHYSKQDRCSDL
attribute.measured: IC50 (nM)

[
  {
    "compound": "O=C(Nc1cccc(-c2cn(CCNc3c4c(nc5ccccc35)CCCC4)nn2)n1)Nc1cccc2c1C1CCCCN1C2=O (racemic)",
    "attribute.measured": "IC50",
    "units.of.measure": "nM",
    "result.value": 133
  },
  {
    "compound": "O=C(Nc1cc(COCc2cn(CCNc3c4c(nc5ccccc35)CCCC4)nn2)ccn1)Nc1cccc2c1C1CCCCN1C2=O (racemic)",
    "attribute.measured": "IC50",
    "units.of.measure": "nM",
    "result.value": 20.8
  },
  {
    "compound": "O=C(Nc1ccc(-c2cn(CCNc3c4c(nc5ccccc35)CCCC4)nn2)cn1)Nc1cccc2c1C1CCCCN1C2=O (racemic)",
    "attribute.measured": "IC50",
    "units.of.measure": "nM",
    "result.value": 0.8
  },
  {
    "compound": "O=C(Nc1cc(-c2cn(CCNc3c4c(nc5ccccc35)CCCC4)nn2)ccn1)Nc1cccc2c1C1CCCCN1C2=O (racemic)",
    "attribute.measured": "IC50",
    "units.of.measure": "nM",
    "result.value": 11.4
  }
]

---

Readings of IC50 for the listed compounds
target: Cholinesterase (Homo sapiens); test: Inhibition of human serum BChE using BTCh as substrate preincubated for 20 mins followed by substrate addition and measured for 3 mins by Ellman's method
Sequence (P06276 whole entry): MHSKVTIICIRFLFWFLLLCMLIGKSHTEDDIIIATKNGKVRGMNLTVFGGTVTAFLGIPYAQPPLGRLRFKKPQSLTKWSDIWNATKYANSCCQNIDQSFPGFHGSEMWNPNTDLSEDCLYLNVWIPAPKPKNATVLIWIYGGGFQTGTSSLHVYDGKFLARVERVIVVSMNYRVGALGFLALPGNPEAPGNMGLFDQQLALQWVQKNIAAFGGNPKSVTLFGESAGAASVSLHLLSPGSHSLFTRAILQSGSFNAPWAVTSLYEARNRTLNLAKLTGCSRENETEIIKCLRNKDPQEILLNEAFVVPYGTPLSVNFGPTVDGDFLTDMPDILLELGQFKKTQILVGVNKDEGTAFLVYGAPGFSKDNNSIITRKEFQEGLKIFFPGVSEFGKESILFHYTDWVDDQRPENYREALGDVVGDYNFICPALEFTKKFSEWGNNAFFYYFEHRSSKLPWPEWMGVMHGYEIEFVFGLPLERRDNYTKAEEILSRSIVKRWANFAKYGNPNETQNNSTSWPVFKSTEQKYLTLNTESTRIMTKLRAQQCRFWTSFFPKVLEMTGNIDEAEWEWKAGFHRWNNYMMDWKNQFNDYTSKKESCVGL

[
  {
    "compound": "CN(Cc1ccnc(NC(=O)Nc2cccc3c2C2CCCCN2C3=O)c1)Cc1cn(CCNc2c3c(nc4ccccc24)CCCC3)nn1 (racemic)",
    "IC50 / nM": 206
  },
  {
    "compound": "O=C(Nc1cc(COCc2cn(CCNc3c4c(nc5ccccc35)CCCC4)nn2)ccn1)Nc1cccc2c1C1CCCCN1C2=O (racemic)",
    "IC50 / nM": 169
  },
  {
    "compound": "O=C(Nc1cc(-c2cn(CCNc3c4c(nc5ccccc35)CCCC4)nn2)ccn1)Nc1cccc2c1[C@H]1CCCCN1C2=O",
    "IC50 / nM": 395
  },
  {
    "compound": "O=C(Nc1cccc(-c2cn(CCNc3c4c(nc5ccccc35)CCCC4)nn2)n1)Nc1cccc2c1C1CCCCN1C2=O (racemic)",
    "IC50 / nM": 21.1
  }
]

---

test system: MDR1; experiment: in vitro; conditions: dog, MDCK-MDR1
Description: Efflux ratio of apparent permeability from basolateral to apical over apical to basolateral side in MDCK2-MDR1 cells by HPLC analysis
Readings of efflux ratio for the listed compounds

[
  {
    "compound": "O=C(Nc1cc(COCc2cn(CCNc3c4c(nc5ccccc35)CCCC4)nn2)ccn1)Nc1cccc2c1C1CCCCN1C2=O (racemic)",
    "efflux ratio": 1.54
  },
  {
    "compound": "CN(Cc1ccnc(NC(=O)Nc2cccc3c2C2CCCCN2C3=O)c1)Cc1cn(CCNc2c3c(nc4ccccc24)CCCC3)nn1 (racemic)",
    "efflux ratio": 0.83
  },
  {
    "compound": "O=C(Nc1cc(-c2cn(CCNc3c4c(nc5ccccc35)CCCC4)nn2)ccn1)Nc1cccc2c1C1CCCCN1C2=O (racemic)",
    "efflux ratio": 1.51
  }
]
